FYI, the data here is from patent US20240360228A1.

target: T1, human chemokine (C-C motif) receptor 8 (CCR8) (human, UniProt P51685 1-355)
T1 construct: On human peripheral blood lymphocytes / PBMC (native) or on human CCR8 GFP-transfected Ba/F3 cells; also called hCCR8; human CCR8
T1 sequence (P51685 whole entry): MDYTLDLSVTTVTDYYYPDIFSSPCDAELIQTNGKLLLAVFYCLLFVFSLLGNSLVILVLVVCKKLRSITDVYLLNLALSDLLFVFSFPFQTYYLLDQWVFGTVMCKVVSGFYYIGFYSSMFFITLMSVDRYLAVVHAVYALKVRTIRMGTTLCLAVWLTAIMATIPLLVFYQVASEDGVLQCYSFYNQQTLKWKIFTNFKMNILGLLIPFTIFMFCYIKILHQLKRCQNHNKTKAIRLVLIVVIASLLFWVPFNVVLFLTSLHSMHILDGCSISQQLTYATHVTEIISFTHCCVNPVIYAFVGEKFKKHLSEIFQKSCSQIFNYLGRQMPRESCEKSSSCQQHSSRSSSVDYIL
assay_details: flow cytometry blocking, PBMC CCR8+ CD4+ cells; competitor PE-AB2 (its MFI is read)
Method: For blocking studies, 100 μL of the cell suspension were incubated with 10 μg purified isotype control, AB1, AB2, AB3, AB4, AB5, AB8, AB9, AB10, AB11, AB12, AB13, AB14, AB15, and Commercial ABI antibodies, or isotype control, as blocking agents. […]
measurement_name: % Blocking (%)
Reply with just the number (in %).

Below, each entry is followed by its recorded % Blocking result.
>>> quantitative_readout("AB15 (antibody, V domains shown, Hybridoma monoclonal; also called antibody 15; clone 15) VH: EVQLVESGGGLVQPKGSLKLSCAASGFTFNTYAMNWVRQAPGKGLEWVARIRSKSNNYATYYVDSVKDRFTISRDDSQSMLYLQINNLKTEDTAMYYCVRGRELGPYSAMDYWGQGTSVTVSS VL: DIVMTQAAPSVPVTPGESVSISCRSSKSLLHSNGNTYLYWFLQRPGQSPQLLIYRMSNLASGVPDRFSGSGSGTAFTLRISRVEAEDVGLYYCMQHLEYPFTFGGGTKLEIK")
-60.8
>>> quantitative_readout("AB2 (antibody, V domains shown, Hybridoma monoclonal; also called antibody 2; clone 2) VH: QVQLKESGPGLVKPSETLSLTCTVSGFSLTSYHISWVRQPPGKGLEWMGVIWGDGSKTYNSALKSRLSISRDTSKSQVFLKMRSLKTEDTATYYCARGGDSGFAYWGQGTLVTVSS VL: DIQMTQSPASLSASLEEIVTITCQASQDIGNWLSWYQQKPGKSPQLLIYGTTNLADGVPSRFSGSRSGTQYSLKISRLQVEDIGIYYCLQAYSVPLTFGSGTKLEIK")
26.7

Query: Write down % Blocking measured for item AB3 (antibody, V domains shown, Hybridoma monoclonal; also called antibody 3; clone 3) VH: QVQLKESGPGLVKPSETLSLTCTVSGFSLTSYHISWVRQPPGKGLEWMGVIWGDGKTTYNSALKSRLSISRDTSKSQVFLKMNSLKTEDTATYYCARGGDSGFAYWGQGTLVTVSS VL: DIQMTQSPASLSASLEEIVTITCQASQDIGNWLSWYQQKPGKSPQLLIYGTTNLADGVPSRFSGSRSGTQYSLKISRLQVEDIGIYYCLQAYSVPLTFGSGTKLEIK
Response: 37
